Test system: CAKI-1 renal
Assay: NCI-60 one-dose screen, 48 h (100 = growth as untreated, 0 = no growth, -100 = all killed)
Conditions: 10 µM unless noted
The panel holds about 83,000 compounds, 20% with a hit somewhere; the sample as a whole holds those more often.
READOUT: growth (%)

>>> reading("COc1ccc(/C=C(\\C#N)n2nnc3cc(Cl)ccc32)cc1")
32.7
>>> reading("CNC(=O)c1ccccc1Oc1nc(Nc2cc(OC)c(OC)c(OC)c2)ncc1Br")
37
>>> reading("Cc1cccc(/C=C/c2c(C(=O)/C=C/c3ccccc3)c(C)nc3ccccc23)c1")
-36.2
>>> reading("Cc1ccc(C(=O)c2ccc(CC(=O)N/N=C/c3ccccc3O)n2C)cc1")
64.5
>>> reading("COCCn1cc(-c2nc(-c3cc4cccnc4[nH]3)cs2)c2cc(OC)ccc21")
34.4
>>> reading("CCOC(=O)C#Cc1c(C(=O)OCC)nnn1Cc1ccc([N+](=O)[O-])cc1")
-52
>>> reading("NC(=O)C(=O)c1ccccc1NC=O")
75.2
>>> reading("O=C(CN1C(=O)NC2NC(=O)NC21)N/N=C/c1ccccc1[N+](=O)[O-] (stereo not given)")
90.1
>>> reading("COc1ccc(/C=C/C(=O)c2ccc(Nc3ccnc4cc(Cl)ccc34)cc2)cc1")
85.1
>>> reading("COc1ccc(C(C)=O)cc1S(=O)(=O)Nc1c(N)nc(SC)[nH]c1=O")
93.2
